Procedure text: Compound was evaluated for maximum time to reach Cmax after treatment with oral dose of 2 mgkg to female wistar rats
Assay type: ADME, organism-based
Parameters: dose 2 mgkg, route oral
Conditions used: rat, in vivo, 2 mg/kg
Endpoint label: Tmax (min)
One number for each entry, in min.

Task: What does the record list as Tmax for `COc1ccc(C(=O)/C(Cc2cc(OC)c(OC)c(OC)c2)=C(\C(=O)[O-])c2ccc3nsnc3c2)cc1F.[Na+]` ?
Output: 30

---

Procedure text: Compound was evaluated for maximum concentration after treatment with oral dose of 2 mgkg to male wistar rats
Type: ADME, organism-based
Parameters: dose 2 mgkg, route oral
Conditions used: rat, in vivo, 2 mg/kg
Endpoint label: Cmax (ng/mL)
Numbers only, in ng/mL.

Task: What does the record list as Cmax for `COc1ccc(C(=O)/C(Cc2cc(OC)c(OC)c(OC)c2)=C(\C(=O)[O-])c2ccc3nsnc3c2)cc1F.[Na+]` ?
Output: 1010

Sourced from ChEMBL document CHEMBL1130878
